- System: prostate DU-145
- assay_remarks: COMPARE screening (NCI human cancer cell line screen), cytotoxicity GI50
- Type: cell-based
- Description: Selected compounds were tested for antiproliferative activity in the National Cancer Institute's developmental therapeutics assay 60 cell line screen (NCI60). The cells were incubated with the tested compounds at 100, 10, 1, 0.1, and 0.01 μM concentrations for 48 h before treatment with sulforhodamine B dye. Optical densities were recorded, and their ratios relative to that of the control were plotted as percentage growth against the log 10 of the tested compound concentrations.
outcome_measure: GI50 (nM)
Give bare numbers, in nM.

Hello, I would appreciate it if you could give GI50 for each entry below.
1. O=C(O)C(F)(F)F.O=C(O)C(F)(F)F.O=C1c2ccccc2-c2c1c1ccccc1c(=O)n2CCCNCCCCNCCCn1c2c(c3ccccc3c1=O)C(=O)c1ccccc1-2 [Compound 14h]
2. COc1cc2c(=O)n(CCCN3CCOCC3)c3c(c2cc1O)C(=O)c1cc2c(cc1-3)OCO2

1. 234
2. 300
